System: MALME-3M melanoma
Assay: NCI tumour cell line growth inhibition, 48 h
Where a SMILES comes first, the peptide text is derived from it. The star is where a group is joined. Trt = c1ccc(C(c2ccccc2)(c2ccccc2)*)cc1; Cbz = O=C(OCc1ccccc1)*
Listed compounds paired with reported TGI

Solved cases (5 shown):
compound: COc1ccc(N2C(=O)c3c(c4[nH]c5ccccc5c4c4ccc(C(C)(C)C)cc34)C2=O)cc1
tested_system: MALME-3M melanoma
TGI: > 100 µM
//
compound: O=C(Nc1ccc([N+](=O)[O-])cc1)Nn1cnnc1
tested_system: MALME-3M melanoma
TGI: 80 µM
//
compound: COC(=O)C(CO)NC(=O)C(CSC(c1ccccc1)(c1ccccc1)c1ccccc1)NC(=O)OCc1ccccc1 (configuration not stated) (Cbz-Cys(Trt)-Ser-OMe; configuration not given here)
tested_system: MALME-3M melanoma
TGI: 28.5 µM
//
compound: O=C(CS(=O)(=O)c1nc2ccccc2nc1-c1ccccc1)Nc1ccc(F)cc1
tested_system: MALME-3M melanoma
TGI: > 100 µM
//
compound: COc1cccc2c1-c1nc(N)c3c(OC)cccc3c1C2=O
tested_system: MALME-3M melanoma
TGI: > 100 µM

Let me know recorded TGI for O=C1NC(=NCCc2ccc(F)cc2)S/C1=C\c1ccc2ncccc2c1 , thanks.
> 25 µM

Let me know recorded TGI for CCCCN(CCCC)C(=O)[C@H](CC)[C@@H]1CC[C@@H](C)[C@@H]([C@H](C)[C@@H](O)[C@@H](C)C(=O)[C@H](CC)C2O[C@]3(C=C[C@@H](O)[C@]4(CC[C@@](C)([C@H]5CC[C@](O)(CC)[C@H](C)O5)O4)O3)[C@H](C)C[C@@H]2C)O1 (some centres not stated) , thanks.
4.16 µM

---

Listed molecules paired with reported TGI
Test system: PC-3 prostate
Assay: NCI tumour cell line growth inhibition, 48 h
Express the result in µM but write the number alone.

Solved cases (3 shown):
molecule: C=C1C[C@H]2C=Nc3cc(OCCCOc4cc5c(cc4OC)C(=O)N4CC(=C)C[C@H]4C=N5)c(OC)cc3C(=O)N2C1
tested_system: PC-3 prostate
display_unit: µM
TGI: 3.13
--
molecule: COC1(CC[C@@H](C)COC2OC(CO)C(O)C(O)C2O)O[C@H]2C[C@H]3[C@@H]4CC=C5C[C@@H](OC6OC(CO)C(OC7OC(C)C(O)C(O)C7O)C(O)C6OC6OC(C)C(O)C(O)C6O)CC[C@]5(C)[C@H]4CC[C@]3(C)[C@H]2[C@@H]1C (some centres undefined)
tested_system: PC-3 prostate
display_unit: µM
TGI: 9.58
--
molecule: COc1ccc(C(O)c2cc3c(N)c(C(=O)Nc4ccc(Cl)cc4)sc3nc2C)cc1 (centres undefined)
tested_system: PC-3 prostate
display_unit: µM
TGI: 22.2

Here is the next item to consider.
Let me know recorded TGI for COc1ccc(Nc2nc3ccccc3n3cccc23)cc1OC , thanks.
23.9

---

System: SK-MEL-5 melanoma
Assay: NCI tumour cell line growth inhibition, 48 h; in the data active = GI50 below about 0.43 µM; inactive = the rest
The reply should be one of these categories: active, inactive

Worked examples follow.
compound: COc1cc2oc(-c3cccc(C(=O)Nc4ccc(Cl)cc4)c3)cc(=O)c2c(OC)c1OC
tested_system: SK-MEL-5 melanoma
qualitative_label: inactive

compound: Cn1cc(/C=C\[N+](=O)[O-])c2ccccc21
tested_system: SK-MEL-5 melanoma
qualitative_label: inactive

compound: CN1CCN(CC(=O)N(C)c2ccc(N=C(c3ccccc3)c3c(O)[nH]c4ccc(C#N)cc34)cc2)CC1
tested_system: SK-MEL-5 melanoma
qualitative_label: inactive

compound: C#Cc1cccc(Nc2ncnc3cc(NC(=O)CCl)ccc23)c1
tested_system: SK-MEL-5 melanoma
qualitative_label: inactive

compound: c1ccc(-c2oc(-c3ccccc3)c(CN3CCCCC3)c2CN2CCCCC2)cc1
tested_system: SK-MEL-5 melanoma
qualitative_label: inactive

Field: outcome | Entry: COc1cc[c]([Sn]([c]2ccc(OC)cc2)([c]2ccc(OC)cc2)[c]2ccc(OC)cc2)cc1
inactive

Field: outcome | Entry: NC1NC=NC2C1N=CN2C1OC(CO)C2[O][Sn][O]C21 (stereo not drawn)
inactive

---

Tested on: UO-31 renal
Test: NCI tumour cell line growth inhibition, 48 h
metric: TGI

Solved cases (8 shown):
molecule: CN(C)CCN(C)P12(Oc3ccccc3O1)Oc1c(Cl)c(Cl)c(Cl)c(Cl)c1O2
tested_system: UO-31 renal
TGI: > 100 µM

molecule: COCC(C)(C)N=CN1Cc2cc3ccccc3nc2C1
tested_system: UO-31 renal
TGI: > 100 µM

molecule: COc1ccc2[nH]c3c(c2c1)[C@H](c1ccccc1)C[C@@H]1C(=O)N(c2ccccc2)C(=O)[C@H]31
tested_system: UO-31 renal
TGI: 52.3 µM

molecule: O=C1C(Cl)N(c2c(Cl)cccc2Cl)C1c1c[nH]c2ccccc12 (stereo not given)
tested_system: UO-31 renal
TGI: > 100 µM

molecule: Cc1c(C)c2c(c(N)c1C#N)C(=O)N(O)C2=O
tested_system: UO-31 renal
TGI: > 100 µM

molecule: c1cc(N[C@@H]2CCNC2)nc(-c2cnc3ccc(-c4cn[nH]c4)cn23)c1
tested_system: UO-31 renal
TGI: > 100 µM

molecule: NS(=O)(=O)c1ccc(NC(=O)N/N=C/c2ccccc2O)cc1
tested_system: UO-31 renal
TGI: > 100 µM

molecule: Clc1ccc(Nc2nnc(CNc3ccc(-c4nnc(Nc5ccc(Cl)cc5)s4)cc3)s2)cc1
tested_system: UO-31 renal
TGI: 44.2 µM

Let me know recorded TGI for FC(F)(F)c1ccc2c(c1)N(CCCNCCN1CCOCC1)c1ccccc1S2 , thanks.
17.5 µM

Let me know recorded TGI for Cc1ccc(NC(=O)CCc2nc(=S)[nH][nH]2)cc1 , thanks.
> 100 µM

---

Test system: SNB-75 CNS
Test: NCI tumour cell line growth inhibition, 48 h
metric: GI50

molecule: O=C1[C@@H]2C(c3ccc(Br)cc3)=NO[C@@H]2C(=O)N1c1ccc(Cc2ccc(N3C(=O)[C@H]4C(c5ccc(Br)cc5)=NO[C@H]4C3=O)cc2)cc1
tested_system: SNB-75 CNS
metric: GI50
recorded_value: > 40 µM
//
molecule: COc1cc(/C=C2\C(=O)N(Cc3ccc(Cl)cc3)c3ccccc32)cc(OC)c1OC
tested_system: SNB-75 CNS
metric: GI50
recorded_value: 5.31 µM
//
molecule: O=C1Nc2ccc(Cl)cc2/C1=C\c1c(-c2ccc(Cl)cc2)nc2sc(C3CC3)nn12
tested_system: SNB-75 CNS
metric: GI50
recorded_value: 1.38 µM

Let me know recorded GI50 for O=C1CC(c2c[nH]c3ccc(F)cc23)C(=O)N1 (centres undefined) , thanks.
> 100 µM

---

Tested on: HCT-116 colon
Assay: NCI tumour cell line growth inhibition, 48 h
Listed compounds paired with reported TGI

compound: COC(=O)C(=O)Cc1nc2ccccc2s1
TGI: > 100 µM

compound: CC(C)(C)N=CN1C=Cc2nc3ccccc3cc2C1
TGI: > 100 µM

compound: Nc1nc(Nc2ccc(Cl)c(Cl)c2)nc2nc[nH]c12
TGI: 34.1 µM

compound: CCCCCCCC/C=C1\CCC(CN(C)C)C1=O (stereo unspecified)
TGI: 7.34 µM

compound: CCOCC1(COCC)CCC(c2[nH]ncc2CN(C)CCNC)CC1
TGI: > 100 µM

Here is the next item to consider.
Let me know recorded TGI for [N-]=[N+]=Nc1ccccc1-c1ccccc1[N+](=O)[O-] , thanks.
> 100 µM

---

Test system: M19-MEL melanoma
Experiment: NCI tumour cell line growth inhibition, 48 h
metric: TGI

compound: COCC(C)(C)N=CN1Cc2cc3ccccc3nc2C1
tested_system: M19-MEL melanoma
recorded_value: > 100 µM

compound: CCNC(=O)C(C)C1CCC2(C)C=CC(=O)C(C)=C2C1O (stereo unspecified)
tested_system: M19-MEL melanoma
recorded_value: > 100 µM

compound: CC(C)(CN1C(=O)C(Cl)=C(Cl)C1=O)CN1C(=O)C(Cl)=C(Cl)C1=O
tested_system: M19-MEL melanoma
recorded_value: 25 µM

compound: Cc1c(O)c(=O)ccn1CCN
tested_system: M19-MEL melanoma
recorded_value: > 100 µM

Let me know recorded TGI for Cn1c(CBr)nc2c1C(=O)c1nc(CBr)[nH]c(=O)c1C2=O , thanks.
68.6 µM

Let me know recorded TGI for COc1cc[c]([Sn]([c]2ccc(OC)cc2)([c]2ccc(OC)cc2)[c]2ccc(OC)cc2)cc1 , thanks.
> 100 µM

Let me know recorded TGI for O=C(O/N=C1\CCCC\C1=C/c1ccccc1)c1ccc([N+](=O)[O-])cc1 , thanks.
> 100 µM

---

Test system: T-47D breast
Experiment: NCI tumour cell line growth inhibition, 48 h
metric: GI50

Solved cases (3 shown):
compound: COc1cc2c(c(OC)c1OC)-c1ccc(NN(C(=O)c3ccccc3)C(=O)c3ccccc3)c(=O)cc1[C@@H](NC(C)=O)CC2 (tested in a mixture with another compound)
tested_system: T-47D breast
GI50: 4.71 µM
--
compound: CCOC(=O)CSc1cc(Cl)c(C)cc1S(=O)(=O)/N=C(/N=C/c1ccc([N+](=O)[O-])s1)NNC
tested_system: T-47D breast
GI50: 12.5 µM
--
compound: Oc1ccc(Cl)cc1C(c1cc(Cl)ccc1O)C(Cl)(Cl)Cl
tested_system: T-47D breast
GI50: 3.32 µM

Let me know recorded GI50 for COc1ccc2c(c1)OC(N)=C(C#N)C2c1cc(OC)c(OC)c(OC)c1 (centres undefined) , thanks.
> 100 µM

Let me know recorded GI50 for COc1ccc2nc3cc(Cl)ccc3c(NCCCNCCO)c2c1 , thanks.
0.625 µM

Let me know recorded GI50 for O=C(Nc1ccc(Oc2ccc(F)cc2)cc1)[C@@H]1C[C@@H](Cc2ccc(F)cc2)CN1C(=O)Cn1ccnn1 , thanks.
4.32 µM

Let me know recorded GI50 for C=C1C(=O)O[C@H]2[C@H]1CC/C(COC(=O)c1cc(OC)c(OC)c(OC)c1)=C\CC[C@@]1(C)O[C@@H]21 , thanks.
0.931 µM

Let me know recorded GI50 for O=C1CC(c2c[nH]c3ccc(F)cc23)C(=O)N1 (centres undefined) , thanks.
> 100 µM

Let me know recorded GI50 for COc1cccc(/C=C/C(=O)c2ccc3cc(OC)ccc3c2)c1 , thanks.
10.7 µM

Let me know recorded GI50 for c1ccc(-c2oc(-c3ccccc3)c(CN3CCCCC3)c2CN2CCCCC2)cc1 , thanks.
2.71 µM

Let me know recorded GI50 for COC1(CC[C@@H](C)COC2OC(CO)C(O)C(O)C2O)O[C@H]2C[C@H]3[C@@H]4CC=C5C[C@@H](OC6OC(CO)C(OC7OC(C)C(O)C(O)C7O)C(O)C6OC6OC(C)C(O)C(O)C6O)CC[C@]5(C)[C@H]4CC[C@]3(C)[C@H]2[C@@H]1C (some centres undefined) , thanks.
4.08 µM
